Assay: 1- to 5-day PK with topical ocular Compound-I formulations (Example 5)
Type: in vivo, Dutch Belted rabbits
Settings: Dutch Belted, rabbit, central retina, topical, 30 μL (bilateral), Groups 1, 5: one dose day 1; 8 hr post-dose; read-out: Average Concentration Central Retina
outcome-measure: concentration at 8 h (nM)
One number for each entry, in nM.

[Q] # query: concentration at 8 h of entry Cl.NC(=O)c1c(OCc2c(F)cc(Br)cc2F)nsc1NC(=O)NCCCCN1CCCC1 [Compound-I, hydrochloride]
[A] 30.4

----------
Assay: 1- to 5-day PK with topical ocular Compound-I formulations (Example 5)
Type: in vivo, Dutch Belted rabbits
Conditions: Dutch Belted, rabbit, peripheral retina, topical, 30 μL per eye (bilateral), q.d. groups (2,6), 4 days; 8 hr after day 5 morning dose; read-out: Average Concentration Peripheral Retina
outcome-measure: concentration at 8 h (nM)
Numbers only, in nM.

[Q] # query: concentration at 8 h of entry Cl.NC(=O)c1c(OCc2c(F)cc(Br)cc2F)nsc1NC(=O)NCCCCN1CCCC1 [Compound-I, hydrochloride]
[A] 50.8
